Listed here: items and their measured kon.
molecular target: T1, recombinant LILRB1 (human, UniProt Q8NHL6 24-461); experiment: BLI (Octet RED96), antibody on biosensor, recombinant LILRB1 in solution;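 note: Background-subtracted sensorgrams fitted with a one-to-one binding model, KD taken as koff over kon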
T1 construct: LILRB1-Fc proteins were also made; also called LILRB1 recombinant proteins
T1 sequence (Q8NHL6 24-461 limits assumed): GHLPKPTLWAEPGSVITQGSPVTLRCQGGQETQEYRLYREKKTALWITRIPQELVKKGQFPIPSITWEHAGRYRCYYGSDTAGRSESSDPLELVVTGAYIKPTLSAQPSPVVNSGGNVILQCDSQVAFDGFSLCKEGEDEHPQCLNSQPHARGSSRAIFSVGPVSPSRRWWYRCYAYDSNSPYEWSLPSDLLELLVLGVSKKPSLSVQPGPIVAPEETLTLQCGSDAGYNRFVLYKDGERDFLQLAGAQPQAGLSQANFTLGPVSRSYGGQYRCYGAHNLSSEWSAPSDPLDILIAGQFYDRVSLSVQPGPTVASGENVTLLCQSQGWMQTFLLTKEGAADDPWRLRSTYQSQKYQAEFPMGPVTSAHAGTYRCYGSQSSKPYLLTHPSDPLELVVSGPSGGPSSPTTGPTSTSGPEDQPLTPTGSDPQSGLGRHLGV
Supply the numeric figure in M⁻¹ s⁻¹, leaving out any unit text.

• B1-#27 (antibody, V domains shown, recombinant rabbit IgG) VH: EQSVKESGGGLVQPEGSLTLTCTVSGFSFSGSYWICWVRQAPGKGLEWIACIYGDSIATYYPNWAKGRFTISKTSSTTVTLQMASLTGADTATYFCARDRNGGSGAYGWDLWGPGTLVTISS VL: ELDLTQTPASVSEPVGGTVTITCQASQSISSYLSWYQQTPGQPPKLLIYKASTLASGVPSRFKGSGSGTEFTLTISDLECADAATYYCQSYYYISATVDNTFGGGTEVEIK = 127000

Let us examine a further case.
Input line: Suppose we examine the binder B1-#74 (antibody, V domains shown, recombinant rabbit IgG) VH: QSLEESGGGLVKPGASLTLTCTASGFSLNRYYMCWVRQAPGKGLEWIGCIYSGSGSTYYASWAKGRFTISKTSSTTVTLQMTSLPAADTATYFCGRLDYRVIYAFNLWGPGTLVTISS VL: ELVLTQTPASVSAAVGGTVTINCQASQSIGSGNLAWYQQKPGQPPKLLIYLASTLASGVPPRFKGSGSGTEFTLTISDLECDDAATYYCQYTYYGTTYDNAFGGGTELEIK ; what kon value has been reported?
Output line: 89900
